B1: VDR (parent)
chain: VTLELSQLSMLPHLADLVSYSIQK

Variants of: B1
Assay details: protein stability index of a GFP-peptide fusion (GPS, HEK-293T) (PSI 1-6); higher = more stable;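 note: lentivirally expressed fusions sorted by FACS into six bins by GFP to DsRed ratio, PSI derived from sequencing read proportions per bin multiplied by bin number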
Condition context: c terminus: a fixed tail appended
Property: protein stability index
Note: the reply should be a number with no unit written.

Task: Entry VTLELSQLSMGPHLADLVSYSIQK [L11G] : reported protein stability index = ?
Output: 1.55

Task: And for VQLELSQLSMLPHLADLVSYSIQK [T2Q] ?
Output: 2.22

Task: Here is the next variant: VRLELSQLSMLPHLADLVSYSIQK [T2R]
Output: 4.52

Task: For VTLELEQLSMLPHLADLVSYSIQK [S6E] then?
Output: 2.77

Task: Can you check VTLELSQLSMLPHLADLVSYPIQK [S21P] next?
Output: 1.05

// next item, protein stability index requested
Task: // query protein stability index value for entry VTLELTQLSMLPHLADLVSYSIQK [S6T]
Output: 1.28
